Assay: protease stability score; higher = more stable; yeast display proteolysis, trypsin and chymotrypsin;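 further: relative to predicted unfolded state with 0 unfolded-like and 1 meaning tenfold more protease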
readout_label: protease stability score
Quick one: just the number, no unit, thanks!

polymer_sequence	observed
HEDEELMKELLKRWLNMLETGDWQNLAHYADPHVRLEFDGREIHGRTEVYRVLVEFHDKIKGMTYILKHSFYVGDKIHIKGSIRIGDKEYDTEIHIIIVDGRLKEVRVEHR	1.98
SEDEETLSEAIRLLLESLQTGDWRTFDKLIDPHARLVIDGKELHGRDLITTLLTHWRVEHFKIRHIEVQGEKVRIEGEVRGDIDGRKKDTHVRLTAEKINGRWLTQIVIIH	1.98

Prompt line: Field request: protease stability score | item: "DDDHKVAEKMNDTFLRLFLTGDFERLWELADPHVRILFNGVEFHGREQMSTVIEHHLRQMRVHDVTIEHITWQGDKLHVHSILRTRVGDKKVDDHIEVNILKVDGKWIVKEVKIL"
Response line: 2.01

* * *

# protease stability score listing for each entry below
Experiment: protease stability score; higher = more stable; yeast display proteolysis, trypsin and chymotrypsin;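 further: relative to predicted unfolded state with 0 unfolded-like and 1 meaning tenfold more protease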

polymer_sequence	protease stability score
SEEETMERLSIEITLEMLKTGDETEILKNMDPDARVIVGDKVYHGREHVIELWRRLGVKHSEPKHVYVINGRVHIDMEVHVDGKRFHVHIISHKINGQWSITNVKLEKE	2.02

Prompt line: Please report the recorded protease stability score for "SEEEELWRLAEETSERIIRTGDFTRLEEMIDPDARMHIDGRTHHGRETISKILLHELTRIKNVKFEIKHKSSQGDWVDIDLILRFDGKTEHIRYYVYKINGQWFLHSIEYH" .
Response line: 1.19

Prompt line: Thanks! And "NEEKEEAERFTRQFLHSWRTGDEESLKRMADPNVRIIVGDYEKVGWEAIEETIKRLGIDHLEYHSVHVHVIGDKVNIHSDVRIQVNGQERDVQIHVHMRKINGRWFVESIRLNFH" ?
Response line: 1.26

Prompt line: How about "DEKHELTKRLVELFLHAMHTGNEDLLHEYMDPNVKLVVNGQEHHGRELANSVIRRMIEELRLKDSKIKDIEFQGEKVHLDVHLHFRQGDKHITLDARIILLKVDGRWVIESLIFH" ?
Response line: 1.76

Prompt line: Another sequence to look at: "DDETDRSEKVAQMFVDLLTTGDWERLRHLMDPHVRMDINGQESHGRENVFRFFQKIRERLGLDRFHIEVTHIDVQGDKALWHGTLNINGQEHEVIIRIDVVDGRWHEVRMEVR"
Response line: 2.62

Prompt line: What would you report for "DELEEETERMFRIIIEFMLTGDWKTLYKLFDPNMLMIINGKELHGRESMATALKFWLRHIREDDIKIHHVELQGEKAISDGRSRGEIGDKEQTRKVHIEVIVINGRVHHVRVDIH" ?
Response line: 0.819

* * *

Assay: protease stability score; higher = more stable; yeast display proteolysis, trypsin and chymotrypsin;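 further: relative to predicted unfolded state with 0 unfolded-like and 1 meaning tenfold more protease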
readout_label: protease stability score
Answer with a bare number; do not write a unit.

polymer_sequence	readout_label	observed
DEDERMIDEYLKKLVKSLITGDEETFTRLVDPHARHDFNGVEYHGWLWLHMVRKRADHFEVRIKNSEVQGDKLRLDFELIFRQGDKTITLKIQVIITKVDGRWIITSIDHD	protease stability score	1.79

Prompt line: # query: protease stability score of entry "DHEEKIWEEVLKELVHQFLTGDWKTRTQMADPEVRVESRVGDKFVRMHGREYLRMLMEFLHEQIKNATVTLHSFRVVDGRNEIKLRAEIGDKTHEIDMHYFVVDGRIKSLHVRTWEL"
Response line: 1.05

Prompt line: What would you report for "DERTLEQLLQDFINNMQTGDHQSLKDLLDENARVNIGDKTLSGRERVTTALKRLMRRVDHIQVDHYEVTNGEMNIDMQLEVNGVRVKVEVIIEVHNGKAKFIEFRVRNEEQWERVEG" ?
Response line: 2.19

Prompt line: Now try "DEDEERNEHFLRLYEKITTTGDEDIAKELIDPNARLHVNGKDIHGRESVVKWLKELRIHHLKLRHFRIVGEKAENDISYDVEVDGRTNRRDVHIYLLKIDGRWVIHSIEVR" .
Response line: 1.84

Prompt line: Now consider "DEQEEKLERMYKLWLELHRTGDEEILTELIDPTARLEVGDKSFHGREILIEWFHRELKRIDHKEVRERHIEIQGEWLHAEIEVIIIVNGREIRITTELIIVTINGKIKSINIKIR" and answer again.
Response line: 2.23

Prompt line: # repeat for "SEDDEKSQEIMHRFIKYYETGDWKRLYELADPNARSYYNGKERHGMDVIRDLIEKVKNVKLHIRRIESDVQGDKINLHLDVEVDIDGQIMTLHDTVHAEKIDGRWRIRIIFLHVK"
Response line: 1.36

Prompt line: Next record, please: "DKREEELHWAVELLIDIFRTGDERLLIELIDPHARSEVGDKTLHGRQHAEVEHRDWGLDRVETHIHDYKVQGNKLHLDMSTVVNGKDIKISFIAEKYNGRWHLKRIIIR"
Response line: 1.27

Prompt line: // repeat for "SEEEEEMERILKYIFRLLTTGNWKELTDNLDPDVRIIIGDKTLIGREEFQRKFKDDHDKFKNMRLEIKDSHMQGDKIIIHLQVDIGDKHFEVIIYVVKINGRWHLKTLEIR" and report
Response line: 2.09

Prompt line: Moving on to "SEEEEDVRIALLMLEHTMRTGDEEDTREMADPNVRVEVGDKELHGRELYVEWFHRLGVKHFDIREVRFIGDKVNIRGISHVNGRNYHVVLHARKIDGRWHLTLWEMR"
Response line: 1.41

Prompt line: For "DEDERELQELREHFIRKFLTGDWEAIANLFDPNTRMNFNGREVHGMEEVMRVFWEIMEKLGVDHQTIHDVKWQGDKLEVHSYLDINGRRHKLRIELQVIDGVIRSVHFEIE" then?
Response line: 1.21

Prompt line: Okay, and "DEHEESAEWHSELMIRSMETGDEDLFEHLLDPRARFHINGQDIHGRDSISHFLSRRLKDMGFKHSSLKTVTIEVQGEWVYLRIKVILIVDGRHLDTEIIIISRKIDGVWHVHSMEIRFR" ?
Response line: 1.34

Prompt line: "DHMEEDVRVAVKIWEETYRTGDEQEINDLVDPNVRVNINGQDYHGRHWLRQIIIEDRRRADHIEIRIDHIEVIGDKVILRGLVIMIQGDKRFDIRMRIFDRKVNGRWHLHNLEQE" ?
Response line: 2.08

Prompt line: Now give it for "HEEQKAIEEWAKRLWDVLLTGDEDELHELLDPHVKLEVHVDGKTIHRHGREEVIRFMVEMRIRDFKIEHVQMYGDKLHMNTRSRGIYNGKHRETEVSIIVTVVNGRLKMIIIEIR" too.
Response line: 2.06

Prompt line: Cool, now "DEFEKDFRFAIEEWLKVVRTGDEDRAHELMDPDVKLDIGDKRHHGREEMLHHVRRADVIHDYKIKDLKFQGNYITVQGEVDGQIGDKRIRTEVRVIILKIDGVWLWRQNYER"
Response line: 0.907

Prompt line: Also "EEEEKHEREMAKIMLDVLRTGDEELFERMFDPNTRYEVGDKILHGRHEVLRNWLEMIKKFKNARFITRHVHVFNGVLHINIEVRFDGRTHEYHIDLFFWDGRFKEVRVESH" ?
Response line: 1.54

Prompt line: Now the same for "DERSRNLEHYAKDLVEDWLTGDFRRYSKLADPNALTIFNGVELHGRELVIRMMNELRHRIDHLEIRIEDSHIQGNKVKIDSHRIMNVNGVEYRTKTEEWFDIVDGRVKSVEIRVH"
Response line: 0.426

Prompt line: "DREKKEAEQLIRLINRYIQTGDEHSLSRLMDPHVLLQVGDKKDIGWEIIINKIKEMWEKFKGARFNLEMRDIHLQGDFAEIDVEFEILVNGQFDTLKTRFIIFKIDGRWVIRSLSLE" , same question.
Response line: 2.33

Prompt line: Please answer likewise for "SEEDKHASKLADLVVEMWMTGDEEKLRHLADPDVKLHIEFNGVNRNHHGRDVMIEVMQRIREEIRIHDIKIHNWHTINGRWHIDSIVDGKFNGRRHETRTEVILEVIDGRIKVISFIFQ"
Response line: 1.07

* * *

Experiment: protease stability score; higher = more stable; yeast display proteolysis, trypsin and chymotrypsin;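 further: relative to predicted unfolded state with 0 unfolded-like and 1 meaning tenfold more protease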
Would you mind classing the entries by protease stability score? Ranges: label 0: < 0.8; label 1: ≥ 0.8 and < 2; label 2: ≥ 2

polymer_sequence	classification
SEEEHEMERHEREFRDVAETGDERDWTNLADPNVRFEDEDEVLVGREDWHEYVRRVDHFHVRRLDYEHFSVIDGRIDIEGNMDIELNFDGQSHRMRVHVRIITTKINGVWLFESVHIQ	label 1

Prompt line: Band assignment needed for "SMEEMSELYIKWWMTGDWDKLTNNADPHTRVNVGNFESVGMEHLIELMLRHVKHFGINHSILRSHDTQGDKVHVDGELHVNGRTARIVLHLEIVNGRIKSESVESRSEVFEEHLHKVLR" please.
Response line: label 0

Prompt line: Check "SHDELLATRLVEEVWELWLTGDEDRTAELLDPDVRFFFIVGDKTHTFHGRDKIRKLMHDLRNHWRIHHIRIERFRVQGEYSEFDVRSHGRYNGVEEETTVHLSLDVVNGKVKRIIVHIR" too.
Response line: label 1

Prompt line: Again, but for "DEDEKLMEETLKVLIRAFDTGNWEDLKRMVDPHVRIYFNGRIFHGREFFMEYVIHLRHHARIHLELKDIEVQGDKAHADSRVLVIQGDKSWEFDLEINMTKYDGRWHIKTIKIR"
Response line: label 2

Prompt line: Try "SEIEEDSRKASRDLMNSIRTGNEEVLKEMADPHVRTDINGREIHGMEKWLNELSEFLEKFKGAKIDLSLKDIRIQGEYIHIHMHVHLRFNGKSDNKDIEIIALKVDGRWLIQEWRIR" next.
Response line: label 1

Prompt line: Next: "SEHELIAHEIVERWVHDVNTGDWENLHRLFDPNTKIDFNGVHLHGRRSLEEWIHEHLRRADHFEVRIKDIRVQGEKSVANTHVNVNINGQEYRRDTSLILIIVDGKVKTMTIRVH"
Response line: label 1

Ref: the NTF2 design screens of Basanta et al. (2020)
